System: MALME-3M melanoma
test.protocol: NCI-60 one-dose screen, 48 h
condition.summary: 10 µM unless noted
This is part of a sample that, as a whole, favours compounds with a hit. Of some 83,000 tested, about 20% had one in any assay. Activity calls are given as the source filed them. How the source made its calls: active means growth percent below 10; inactive means the rest.
Permitted responses: true (1) = active, false (0) = inactive

Past entries and their recorded results:
1. CS(=O)(=O)Nc1cc(-c2ccc3ncc(C#N)c(Nc4cccc(Cl)c4F)c3c2)cnc1Cl	true (1)
2. Cc1cc(C)c2sc(=O)n(Cc3nnc(SCCC(=O)O)o3)c2n1	false (0)
3. C=C(C)[C@@H]1CC[C@]2(COP(=O)(OCC)OCC)CC[C@]3(C)[C@H](CC[C@@H]4[C@@]5(C)CCCNC(C)(C)[C@@H]5CC[C@]43C)[C@@H]12	true (1)

q: Hi, sorry to bother you, what did the test record for NS(=O)(=O)c1ccc(Nc2nc(SCc3ccccc3)nc3ccccc23)cc1 ?
a: false (0)

q: Try this compound too: CC(=O)Nc1cccc(Nc2nc(N[C@H](C)c3ccccc3)c3ccccc3n2)c1
a: false (0)

q: Try this compound too: Brc1ccccc1/C=N/Nc1nc(N/N=C/c2ccccc2Br)nc(N2CCOCC2)n1
a: false (0)

q: Try this compound too: COc1cc(-c2nn(C(C)(C)C)cc2-c2ccnc(NCCCNS(=O)(=O)c3ccc(Cl)cc3)n2)ccc1Cl
a: false (0)

q: Try this compound too: CC1(C)CC[C@]2(C(=O)O)CC[C@]3(C)C(=CC[C@@H]4[C@@]5(C)CC/C(=N\OCCC#N)C(C)(C)[C@@H]5CC[C@]43C)[C@@H]2C1
a: false (0)

FYI, the data here is from PubChem BioAssay (NCI).
